Target under test: UniProtKB P43115
Sequence (P43115 1-390): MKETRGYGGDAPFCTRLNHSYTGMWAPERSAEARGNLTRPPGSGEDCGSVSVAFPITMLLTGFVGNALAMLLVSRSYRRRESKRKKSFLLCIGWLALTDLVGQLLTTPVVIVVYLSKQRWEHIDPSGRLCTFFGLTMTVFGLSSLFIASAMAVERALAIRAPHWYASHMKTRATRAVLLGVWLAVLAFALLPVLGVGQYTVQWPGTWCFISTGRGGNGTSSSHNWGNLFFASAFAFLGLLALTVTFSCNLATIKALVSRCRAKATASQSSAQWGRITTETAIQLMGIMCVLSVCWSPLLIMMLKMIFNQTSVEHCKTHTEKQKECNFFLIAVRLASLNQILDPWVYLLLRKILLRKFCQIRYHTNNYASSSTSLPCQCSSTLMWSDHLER
Test protocol: EP3 functional antagonist assay, Cerep (sulprostone 0.1 nM, impedance)
Conditions used: EP3 concentration–inhibition curve; n = 2
Experimental endpoint: pIC50
Numbers only, as −log10 of the molar value.

Provide the documented pIC50 with UniProtKB P43115 as the system for COc1ccc(Br)cc1S(=O)(=O)NC(=O)/C=C/c1ccccc1Cc1ccc2ccccc2c1 [Compound L798106, reference compound]
6.43
